Values compiled from paper PMC10408569.

tested on: HCT-15; assay: NCI-60 anticancer screening (SRB); format: cell-based; settings: Homo sapiens; HCT-15, colon cancer; one dose 10 μM; read-out: Growth Inhibition Percentage (GI %)
test readout: inhibition at 10 µM (%)

molecule="CCOC(=O)C1=C(N)N(c2ccc(Cl)cc2)C2=C(C(=O)CC(C)(C)C2)C1c1ccc([N+](=O)[O-])cc1 (racemic) [8k]" relation== value_observed=18
molecule="CCOC(=O)C1=C(N)N(c2ccc(Cl)cc2)C2=C(C(=O)CC(C)(C)C2)C1c1ccccn1 (racemic) [12c]" relation== value_observed=12
molecule="CCOC(=O)C1=C(N)N(c2ccc(C)cc2)C2=C(C(=O)CC(C)(C)C2)C1c1ccccc1OC (racemic) [6h]" relation=< value_observed=10
molecule="CCOC(=O)C1=C(N)N(c2ccc(C)cc2)C2=C(C(=O)CC(C)(C)C2)C1c1ccc(OC)cc1 (racemic) [8g]" relation=< value_observed=10
molecule="CCOC(=O)C1=C(N)N(c2ccccc2)C2=C(C(=O)CC(C)(C)C2)C1c1ccc(OC)cc1 (racemic) [8f]" relation=< value_observed=10
molecule="CCOC(=O)C1=C(N)N(c2ccc(Cl)cc2)C2=C(C(=O)CC(C)(C)C2)C1c1ccc(F)cc1 (racemic) [8b]" relation== value_observed=34

* * *

pIC50 values for the molecules below.
molecular target: EGFR^L858R (Homo sapiens, UniProt P00533, L858R); assay: biochemical
Sequence (P00533 25-1210 L858R): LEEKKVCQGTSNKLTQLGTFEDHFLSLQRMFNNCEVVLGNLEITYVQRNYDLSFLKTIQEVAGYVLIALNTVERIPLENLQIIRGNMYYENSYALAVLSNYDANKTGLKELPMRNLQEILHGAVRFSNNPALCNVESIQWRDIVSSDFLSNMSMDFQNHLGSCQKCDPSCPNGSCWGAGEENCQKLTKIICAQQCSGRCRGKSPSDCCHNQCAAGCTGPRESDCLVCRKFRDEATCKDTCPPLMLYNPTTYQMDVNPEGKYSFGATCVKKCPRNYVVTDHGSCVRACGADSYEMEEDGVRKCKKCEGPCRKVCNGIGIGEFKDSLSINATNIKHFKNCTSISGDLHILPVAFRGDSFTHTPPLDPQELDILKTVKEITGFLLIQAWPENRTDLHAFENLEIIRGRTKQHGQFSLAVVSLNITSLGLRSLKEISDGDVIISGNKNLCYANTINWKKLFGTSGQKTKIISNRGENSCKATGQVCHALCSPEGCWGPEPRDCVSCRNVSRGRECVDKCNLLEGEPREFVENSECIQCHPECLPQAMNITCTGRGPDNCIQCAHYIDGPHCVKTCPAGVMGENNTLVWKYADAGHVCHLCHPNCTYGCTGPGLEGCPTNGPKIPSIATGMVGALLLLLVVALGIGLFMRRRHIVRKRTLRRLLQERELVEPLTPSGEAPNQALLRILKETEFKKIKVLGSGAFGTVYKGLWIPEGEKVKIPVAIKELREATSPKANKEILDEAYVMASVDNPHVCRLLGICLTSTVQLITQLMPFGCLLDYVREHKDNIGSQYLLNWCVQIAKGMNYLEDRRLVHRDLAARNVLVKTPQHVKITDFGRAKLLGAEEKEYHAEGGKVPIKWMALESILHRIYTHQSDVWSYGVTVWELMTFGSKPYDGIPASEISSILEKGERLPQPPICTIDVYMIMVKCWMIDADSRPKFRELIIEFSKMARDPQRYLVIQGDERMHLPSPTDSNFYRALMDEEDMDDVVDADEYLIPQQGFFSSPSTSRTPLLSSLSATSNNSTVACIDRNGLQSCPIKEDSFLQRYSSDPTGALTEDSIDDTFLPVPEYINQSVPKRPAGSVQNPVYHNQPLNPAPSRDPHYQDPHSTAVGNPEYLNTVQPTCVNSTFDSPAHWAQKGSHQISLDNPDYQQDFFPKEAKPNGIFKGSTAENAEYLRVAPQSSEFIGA
pIC50: −log10 of the molar value.
test readout: pIC50

molecule="CCOC(=O)C1=C(N)N(c2ccc(Cl)cc2)C2=C(C(=O)CC(C)(C)C2)C1c1ccccc1OC (racemic) [6i]" test_readout=pIC50 value_observed=6.64
molecule="CCOC(=O)C1=C(N)N(c2ccc(C)cc2)C2=C(C(=O)CC(C)(C)C2)C1c1ccccc1Br (racemic) [6e]" test_readout=pIC50 value_observed=6.43
molecule="CCOC(=O)C1=C(N)N(c2ccccc2)C2=C(C(=O)CC(C)(C)C2)C1c1ccccc1Br (racemic) [6d]" test_readout=pIC50 value_observed=6.60
molecule="CCOC(=O)C1=C(N)N(c2ccc(Cl)cc2)C2=C(C(=O)CC(C)(C)C2)C1c1cccc(Cl)c1Cl (racemic) [10b]" test_readout=pIC50 value_observed=6.06
molecule="CCOC(=O)C1=C(N)N(c2ccc(Cl)cc2)C2=C(C(=O)CC(C)(C)C2)C1c1ccccc1Cl (racemic) [6c]" test_readout=pIC50 value_observed=6.30
molecule="CCOC(=O)C1=C(N)N(c2ccc(Cl)cc2)C2=C(C(=O)CC(C)(C)C2)C1c1ccc(F)cc1 (racemic) [8b]" test_readout=pIC50 value_observed=6.11

* * *

test system: SNB-19; test: NCI-60 anticancer screening (SRB); type: cell-based; conditions: Homo sapiens; SNB-19, CNS cancer; one dose 10 μM; read-out: Growth Inhibition Percentage (GI %)
test readout: inhibition at 10 µM

compound="CCOC(=O)C1=C(N)N(c2ccc(Cl)cc2)C2=C(C(=O)CC(C)(C)C2)C1c1ccc(OC)cc1 (racemic) [8h]" target_or_test_system=SNB-19 test_readout="inhibition at 10 µM" value_observed="< 10%"
compound="CCOC(=O)C1=C(N)N(c2ccc(Cl)cc2)C2=C(C(=O)CC(C)(C)C2)C1c1ccc(F)cc1 (racemic) [8b]" target_or_test_system=SNB-19 test_readout="inhibition at 10 µM" value_observed=22%
compound="CCOC(=O)C1=C(N)N(c2ccccc2)C2=C(C(=O)CC(C)(C)C2)C1c1ccccc1Br (racemic) [6d]" target_or_test_system=SNB-19 test_readout="inhibition at 10 µM" value_observed="< 10%"

* * *

# maps each entry to its inhibition at 10 µM
system: HCC-2998; experiment: NCI-60 anticancer screening (SRB); assay type: cell-based; settings: Homo sapiens; HCC-2998, colon cancer; one dose 10 μM; read-out: Growth Inhibition Percentage (GI %)
test readout: inhibition at 10 µM

compound="CCOC(=O)C1=C(N)N(c2ccccc2)C2=C(C(=O)CC(C)(C)C2)C1c1ccc(Cl)cc1Cl (racemic) [10c]" test_readout="inhibition at 10 µM" value_observed=62%
compound="CCOC(=O)C1=C(N)N(c2ccc(C)cc2)C2=C(C(=O)CC(C)(C)C2)C1c1ccccc1Cl (racemic)" test_readout="inhibition at 10 µM" value_observed="< 10%"
compound="CCOC(=O)C1=C(N)N(c2ccc(C)cc2)C2=C(C(=O)CC(C)(C)C2)C1c1ccccn1 (racemic) [12b]" test_readout="inhibition at 10 µM" value_observed="< 10%"
compound="CCOC(=O)C1=C(N)N(c2ccc(C)cc2)C2=C(C(=O)CC(C)(C)C2)C1c1ccc([N+](=O)[O-])cc1 (racemic)" test_readout="inhibition at 10 µM" value_observed="< 10%"

* * *

Attribute: inhibition at 10 µM
tested on: HCT-15; assay: NCI-60 anticancer screening (SRB); format: cell-based; conditions: Homo sapiens; HCT-15, colon cancer; one dose 10 μM; read-out: Growth Inhibition Percentage (GI %)
test readout: inhibition at 10 µM

compound="CCOC(=O)C1=C(N)N(c2ccc(C)cc2)C2=C(C(=O)CC(C)(C)C2)C1c1cccnc1 (racemic) [12e]" value_observed="< 10%"
compound="CCOC(=O)C1=C(N)N(c2ccc(C)cc2)C2=C(C(=O)CC(C)(C)C2)C1c1ccc([N+](=O)[O-])cc1 (racemic)" value_observed="< 10%"
compound="CCOC(=O)C1=C(N)N(c2ccccc2)C2=C(C(=O)CC(C)(C)C2)C1c1ccccc1Br (racemic)" value_observed=17%
compound="CCOC(=O)C1=C(N)N(c2ccc(C)cc2)C2=C(C(=O)CC(C)(C)C2)C1c1ccccn1 (racemic) [12b]" value_observed="< 10%"

* * *

test system: MALME-3M; test: NCI-60 anticancer screening (SRB); type: cell-based; conditions: Homo sapiens, melanoma, one dose 10 μM, read-out: Growth Inhibition Percentage (GI %)
Catalogue of compounds with associated inhibition at 10 µM
test readout: inhibition at 10 µM

compound="CCOC(=O)C1=C(N)N(c2ccc(Cl)cc2)C2=C(C(=O)CC(C)(C)C2)C1c1cccc(Cl)c1Cl (racemic) [10b]" value_observed=20%
compound="CCOC(=O)C1=C(N)N(c2ccc(C)cc2)C2=C(C(=O)CC(C)(C)C2)C1c1ccccc1Br (racemic)" value_observed="< 10%"
compound="CCOC(=O)C1=C(N)N(c2ccccc2)C2=C(C(=O)CC(C)(C)C2)C1c1ccccc1Cl (racemic)" value_observed=11%
compound="CCOC(=O)C1=C(N)N(c2ccc(Cl)cc2)C2=C(C(=O)CC(C)(C)C2)C1c1ccc(N2CCOCC2)cc1 (racemic)" value_observed="< 10%"
compound="CCOC(=O)C1=C(N)N(c2ccc(Cl)cc2)C2=C(C(=O)CC(C)(C)C2)C1c1ccccn1 (racemic) [12c]" value_observed="< 10%"
compound="CCOC(=O)C1=C(N)N(c2ccc(Cl)cc2)C2=C(C(=O)CC(C)(C)C2)C1c1ccc(OC)cc1 (racemic)" value_observed="< 10%"
compound="CCOC(=O)C1=C(N)N(c2ccccc2)C2=C(C(=O)CC(C)(C)C2)C1c1ccc([N+](=O)[O-])cc1 (racemic)" value_observed="< 10%"

* * *

test system: HCC-2998; assay: NCI-60 anticancer screening (SRB); format: cell-based; conditions: Homo sapiens; HCC-2998, colon cancer; one dose 10 μM; read-out: Growth Inhibition Percentage (GI %)
test readout: inhibition at 10 µM

compound="CCOC(=O)C1=C(N)N(c2ccc(Cl)cc2)C2=C(C(=O)CC(C)(C)C2)C1c1ccccc1Br (racemic) [6f]" value_observed="< 10%"
compound="CCOC(=O)C1=C(N)N(c2ccc(Cl)cc2)C2=C(C(=O)CC(C)(C)C2)C1c1ccc(Cl)cc1 (racemic) [8e]" value_observed=11%
compound="CCOC(=O)C1=C(N)N(c2ccc(C)cc2)C2=C(C(=O)CC(C)(C)C2)C1c1ccccc1Br (racemic) [6e]" value_observed=11%
compound="CCOC(=O)C1=C(N)N(c2ccccc2)C2=C(C(=O)CC(C)(C)C2)C1c1ccc(Cl)cc1 (racemic) [8c]" value_observed=57%

* * *

test system: DU-145; experiment: NCI-60 anticancer screening (SRB); type: cell-based; settings: Homo sapiens; DU-145, prostate cancer; one dose 10 μM; read-out: Growth Inhibition Percentage (GI %)
Listing of entries alongside the reported inhibition at 10 µM.
test readout: inhibition at 10 µM (%)

compound="CCOC(=O)C1=C(N)N(c2ccc(C)cc2)C2=C(C(=O)CC(C)(C)C2)C1c1ccccn1 (racemic) [12b]" uom=% relation=< value_observed=10
compound="CCOC(=O)C1=C(N)N(c2ccc(C)cc2)C2=C(C(=O)CC(C)(C)C2)C1c1cccnc1 (racemic) [12e]" uom=% relation=< value_observed=10
compound="CCOC(=O)C1=C(N)N(c2ccccc2)C2=C(C(=O)CC(C)(C)C2)C1c1ccccc1Cl (racemic)" uom=% relation== value_observed=12
compound="CCOC(=O)C1=C(N)N(c2ccccc2)C2=C(C(=O)CC(C)(C)C2)C1c1ccccn1 (racemic) [12a]" uom=% relation=< value_observed=10
compound="CCOC(=O)C1=C(N)N(c2ccccc2)C2=C(C(=O)CC(C)(C)C2)C1c1ccc(Cl)cc1 (racemic)" uom=% relation== value_observed=42
compound="CCOC(=O)C1=C(N)N(c2ccccc2)C2=C(C(=O)CC(C)(C)C2)C1c1ccc(Cl)cc1Cl (racemic) [10c]" uom=% relation== value_observed=54
compound="CCOC(=O)C1=C(N)N(c2ccc(C)cc2)C2=C(C(=O)CC(C)(C)C2)C1c1ccc(Cl)cc1 (racemic)" uom=% relation=< value_observed=10
